assay: Cell Viability - LYMP2-026 (AID 989); conditions: LYMP2-026 lymphoblastoid cell viability, qHTS; series mostly up to 92.2 µM;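 further: cells exposed to compound for 24 h at 37 °C; nearly all actives have a fitted effect of over 50% in size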
Inconclusive results are not listed. Calls of active or inactive are those of the source. The call rests on the fitted dose curve; in most records, active means well fitted cell-killing curve with a large enough effect; inconclusive means small, poorly fitted or top-dose-only effect; inactive means flat fitted curve, though single readings scatter.
# valid calls are active, inactive; nothing else

Consider the worked cases shown below.
>>> category_label("[CH3][Hg][Cl]")
"active"
>>> category_label("Nc1ccccc1C(=O)OCCc1ccccc1")
"inactive"
>>> category_label("O=C(CCl)c1ccccc1")
"active"
>>> category_label("Oc1c(Br)c(Br)c(Br)c(Br)c1Br")
"inactive"
>>> category_label("O=C(O)C1C(C(=O)O)C2(Cl)C(Cl)=C(Cl)C1(Cl)C2(Cl)Cl (stereo unspecified)")
"inactive"

Next up:
For `O=[N+]([O-])C(Br)Br` , which call appears in the assay record?
active

###

assay: S16 Schwann cell PMP22 intronic element beta-lactamase assay (AID 624044); settings: S16 rat Schwann cells, PMP22 element beta-lactamase FRET, 24 h;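 further: 0% = DMSO and -100% = potassium clavulanate positive control; nearly all actives have a fitted effect of over 15% in size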
Results filed as inconclusive are left out. Calls of active or inactive are those of the source. The call rests on the fitted dose curve.
Hi! Could you answer with just one of these? 1 for active, -1 for inactive

>>> category_label("CC(=O)Oc1ccc2c3c1OC1[C@@H](OC(C)=O)C=C[C@H]4[C@H](C2)N(C)CC[C@]314 (stereo partly drawn)")
-1
>>> category_label("O=C1CC2OCC=C3CN4CCC56c7ccccc7N1C5[C@H]2[C@H]3C[C@H]46 (stereo partly drawn) (tested in a mixture with another compound)")
-1
>>> category_label("CC1OC(O[C@H]2C[C@@H](O)[C@]3(CO)[C@@H]4C(CC[C@]3(O)C2)[C@@]2(O)CC[C@H](C3=CC(=O)OC3)[C@@]2(C)C[C@H]4O)C(O)C(O)C1O (stereo partly drawn)")
-1

Now turn to the next compound.
Recorded call for C#C[C@]1(O)CC[C@H]2[C@@H]3CCC4=CC(=O)CCC4(C)[C@H]3CCC21C (stereo partly drawn) ?
-1

###

test: qHTS assay for small molecule antagonists of peroxisome proliferator-activated receptor delta signaling (AID 588535); settings: HEK293T PPARd-UAS-bla, beta-lactamase FRET ratio, 18 h; 460 nm channel;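 further: cells co-treated with a PPAR-delta agonist as stimulator during compound exposure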
Results filed as inconclusive are left out.
Use max response to assign classes; range list: class A = under -10%, class B = from -10% up to 30%, class C = 30% and over

>>> category_label("CC(O)CN(CC(C)O)CC(C)O (stereo not given)")
"class A"

Field: class (max response) — entry: `Oc1ccc(C(c2ccc(O)cc2)(C(F)(F)F)C(F)(F)F)cc1`
class A

# bin lookup: classify `Cc1cc(C)nc(NC(=O)NS(=O)(=O)c2ccccc2C(=O)OC2COC2)n1` by its max response
class B

Quick check: band for `Cn1cc(-c2ccccc2)c(=O)c(-c2cccc(C(F)(F)F)c2)c1`
class B

Where would `COc1cc(OC)nc(NC(=O)NS(=O)(=O)c2cc(NC=O)ccc2C(=O)N(C)C)n1` land among the classes by reported max response?
class A

Class? Entry: `N#CCNC(=O)c1cnccc1C(F)(F)F`
class A

###

Provide the reported max response of each item.
test: qHTS assay for small molecule agonists of the antioxidant response element (ARE) signaling pathway measured by Nrf2-dependant transcriptional activity - cell viability counter screen (AID 720653); details: ARE-bla HepG2 viability, CellTiter-Glo ATP luminescence, 16 h; stronger effect = lower value; further: on the % scale 0 is the no-effect control and ±100 the full control effect
Records with an inconclusive call do not appear. Calls of active or inactive are those of the source. Calls follow the shape of the dose curve; as a rule, active = well fitted cell-killing curve with a large enough effect in the repeat runs; inconclusive = weak or mixed curves; inactive = flat fitted curve, though single readings scatter.

Below, each entry is followed by its recorded max response result.
>>> result("O=C(Nc1ccccc1)Nc1ccnc(Cl)c1")
"-3.22% (inactive)"
>>> result("CC(c1ccc(O)cc1)(c1ccc(O)cc1)c1ccc(O)cc1")
"-3.26% (inactive)"

The record that follows has no max response shown yet.
Output max response of CCCCC(CC)C(=O)Cl (stereo not drawn)
-2.12% (inactive)
